# Test system: MGC-803
# Procedure Details: Antiproliferative activity against human MGC803 cells after 48 hrs by MTT assay
# Type: functional, cell-based
# Condition Parameters: MGC-803, 48 h
pIC50: −log10 of the molar value.
TRUE means recorded pIC50 is 5 or above; FALSE means it is below 5.

Consider the worked cases shown below.
{"Compound String": "C#CCO[C@H]1O[C@@H]2C[C@@H]3C(C)(C)CCC[C@]13[C@@H]1[C@@H](O)C[C@H]3C(=C)C(=O)[C@@]21[C@@H]3O", "Category": "TRUE"}
{"Compound String": "C=C1C(=O)[C@]23[C@H](O)[C@H]1C[C@H](O)[C@H]2[C@]12CCCC(C)(C)[C@H]1C[C@H]3O[C@@H]2OCCc1cn(Cc2ccc(OC)cc2)nn1", "Category": "TRUE"}
{"Compound String": "C=C1C(=O)[C@]23[C@H](O)[C@H]1CC[C@H]2[C@@]12CO[C@]3(O)[C@@H](O)[C@@H]1C(C)(C)CC[C@@H]2O", "Category": "FALSE"}
{"Compound String": "C=C1C(=O)[C@]23[C@H](O)[C@H]1C[C@H](O)[C@H]2[C@]12CCCC(C)(C)[C@H]1C[C@H]3O[C@@H]2OCCc1cn(Cc2ccc(C)cc2)nn1", "Category": "TRUE"}

Switching to the query record.
Check the entry C=C1C(=O)[C@]23[C@H](O)[C@H]1C[C@H](O)[C@H]2[C@]12CCCC(C)(C)[C@H]1C[C@H]3O[C@@H]2OCCn1cc(C2CC2)nn1 : does pIC50 equal or exceed 5?
TRUE

====

# System: ECa-109 cell line
# Procedure Details: Antiproliferative activity against human ECA109 cells after 48 hrs by MTT assay
# Format: functional, cell-based
# Condition Parameters: ECa-109, 48 h
Attribute Measured: IC50 (µM)
Give bare numbers, in µM.

{"Compound": "C=C1C(=O)[C@]23[C@H](O)[C@H]1C[C@H](O)[C@H]2[C@]12CCCC(C)(C)[C@H]1C[C@H]3O[C@@H]2OCCn1cc(-c2ccccc2)nn1", "Measurement Units": "µM", "IC50": 4.26}
{"Compound": "C=C1C(=O)[C@]23[C@H](O)[C@H]1C[C@H](O)[C@H]2[C@]12CCCC(C)(C)[C@H]1C[C@H]3O[C@@H]2OCCc1cn(Cc2ccc(Cl)c(Cl)c2)nn1", "Measurement Units": "µM", "IC50": 2.58}

# ---- query compound ----
The reported IC50 of the compound C=C1C(=O)[C@]23[C@H](O)[C@H]1C[C@H](O)[C@H]2[C@]12CCCC(C)(C)[C@H]1C[C@H]3OC2OCCN=[N+]=[N-] (single isomer, unassigned) was 6.08

====

# System: MGC-803
# Procedure Details: Antiproliferative activity against human MGC803 cells after 48 hrs by MTT assay
# Assay type: functional, cell-based
# Condition Parameters: MGC-803, 48 h
Kindly supply the reported IC50 values for the records listed here.
One number for each entry, in µM.

Past entries and their recorded results:
{"Molecule": "C=C1C(=O)[C@]23[C@H](O)[C@H]1C[C@H](O)[C@H]2[C@]12CCCC(C)(C)[C@H]1C[C@H]3O[C@@H]2OCCc1cn(Cc2ccc(Cl)cc2)nn1", "Measurement Units": "µM", "IC50": 2.53}
{"Molecule": "C=C1C(=O)[C@]23[C@H](O)[C@H]1C[C@H](O)[C@H]2[C@]12CCCC(C)(C)[C@H]1C[C@H]3OC2OCCN=[N+]=[N-] (single isomer, unassigned)", "Measurement Units": "µM", "IC50": 11.9}

# ---- query molecule ----
The reported IC50 of the molecule C=C1C(=O)[C@]23[C@H](O)[C@H]1C[C@H](O)[C@H]2[C@]12CCCC(C)(C)[C@H]1C[C@H]3O[C@H]2O was 14.7
